Value source: the supplement of paper PMC6757056

B1: library; a variant is named by its letters at N, in order (parent)
chain: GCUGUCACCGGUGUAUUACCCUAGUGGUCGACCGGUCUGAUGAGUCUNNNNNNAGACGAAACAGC

Variants of: B1
Assay: normalized RNA/DNA level with ligand (relative to sTRSVctl = 100) (log10 (% of sTRSVctl)); ligand: hypoxanthine (xanthine aptamer); higher = less ribozyme self-cleavage, higher mRNA level
Details: ligand concentration (+) RNA-Seq: 5 mM, HEK293T, reporter: mCherry (pCS4076), ligand present: yes
reportedMetric: normalized RNA/DNA level with ligand (log10)

sequenceChange	numericReadout
CAUGAC	1.94
GUACUU	1.94
UGACCG	1.96
AGAUUC	1.92
GACCUG	1.89
UUGUUU	2.04
CGACUC	2.06
UCGAUC	1.98
UAGCGG	1.88
GGAGGA	1.93
AGUGCA	1.92
GUGUGU	1.89
UUUACG	1.92
AUUGGC	1.94
UCACUA	1.92
GCUGGC	1.85
GCCGCG	1.94
UAAUUA	1.92
AAGCAG	1.64
GAGUAA	1.88
AUCUCG	1.89
CACUCG	1.99
